Target: T1, human CD4 on cells (SKW3 cells; human PBMCs) (human, UniProt P01730 26-458)
T1 construct: whole, on cells; SKW3 CD4 knockout cells served as the negative cell line in the primary screen; also called hCD4; huCD4
Test: FACS binning on SKW3 cells; competitor OKT4a; background 5000, max binding 35000
MEASURED METRIC: OKT4a signal (anti-hu A647) with supernatant
# output: bare number, no unit

| BINDER | REPORTED |
| --- | --- |
| 75110_10O16A (antibody, V domains shown, Tested as non-clonal AlivaMab Mouse Kappa hybridoma supernatant (detected with anti-mouse Fc gamma and anti-human kappa); also called 75110_10016A) VH: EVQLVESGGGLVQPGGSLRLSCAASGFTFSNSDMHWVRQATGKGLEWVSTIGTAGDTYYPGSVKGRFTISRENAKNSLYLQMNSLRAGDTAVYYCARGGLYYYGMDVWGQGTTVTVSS VL: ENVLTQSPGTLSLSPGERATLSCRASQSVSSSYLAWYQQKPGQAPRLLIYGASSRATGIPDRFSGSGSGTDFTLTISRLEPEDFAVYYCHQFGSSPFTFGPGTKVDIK | 34800 |

[in] Looking for the measured OKT4a signal (anti-hu A647) with supernatant of 75110_14N19A (antibody, V domains shown, Tested as non-clonal AlivaMab Mouse Kappa hybridoma supernatant (detected with anti-mouse Fc gamma and anti-human kappa)) VH: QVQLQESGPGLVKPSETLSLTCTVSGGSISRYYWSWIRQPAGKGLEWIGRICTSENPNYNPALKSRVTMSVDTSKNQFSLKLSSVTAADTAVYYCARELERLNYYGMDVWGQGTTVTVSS VL: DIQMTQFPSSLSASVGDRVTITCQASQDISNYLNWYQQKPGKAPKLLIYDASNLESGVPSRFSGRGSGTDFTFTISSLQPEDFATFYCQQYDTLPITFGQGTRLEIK , can you help?
[out] 29700

[in] Next: 75110_02N15A (antibody, V domains shown, Tested as non-clonal AlivaMab Mouse Kappa hybridoma supernatant (detected with anti-mouse Fc gamma and anti-human kappa)) VH: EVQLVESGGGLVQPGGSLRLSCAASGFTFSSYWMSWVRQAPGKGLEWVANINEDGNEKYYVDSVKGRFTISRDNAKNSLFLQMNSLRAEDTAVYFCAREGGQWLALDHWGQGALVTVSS VL: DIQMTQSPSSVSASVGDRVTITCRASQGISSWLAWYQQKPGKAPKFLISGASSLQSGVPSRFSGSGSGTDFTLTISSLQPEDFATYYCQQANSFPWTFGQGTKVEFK
[out] 42900
